Quick reference for IC50 among some molecules
STUDY SYSTEM: human TLR9 (Homo sapiens)
Sequence (Q9NR96 26-1032): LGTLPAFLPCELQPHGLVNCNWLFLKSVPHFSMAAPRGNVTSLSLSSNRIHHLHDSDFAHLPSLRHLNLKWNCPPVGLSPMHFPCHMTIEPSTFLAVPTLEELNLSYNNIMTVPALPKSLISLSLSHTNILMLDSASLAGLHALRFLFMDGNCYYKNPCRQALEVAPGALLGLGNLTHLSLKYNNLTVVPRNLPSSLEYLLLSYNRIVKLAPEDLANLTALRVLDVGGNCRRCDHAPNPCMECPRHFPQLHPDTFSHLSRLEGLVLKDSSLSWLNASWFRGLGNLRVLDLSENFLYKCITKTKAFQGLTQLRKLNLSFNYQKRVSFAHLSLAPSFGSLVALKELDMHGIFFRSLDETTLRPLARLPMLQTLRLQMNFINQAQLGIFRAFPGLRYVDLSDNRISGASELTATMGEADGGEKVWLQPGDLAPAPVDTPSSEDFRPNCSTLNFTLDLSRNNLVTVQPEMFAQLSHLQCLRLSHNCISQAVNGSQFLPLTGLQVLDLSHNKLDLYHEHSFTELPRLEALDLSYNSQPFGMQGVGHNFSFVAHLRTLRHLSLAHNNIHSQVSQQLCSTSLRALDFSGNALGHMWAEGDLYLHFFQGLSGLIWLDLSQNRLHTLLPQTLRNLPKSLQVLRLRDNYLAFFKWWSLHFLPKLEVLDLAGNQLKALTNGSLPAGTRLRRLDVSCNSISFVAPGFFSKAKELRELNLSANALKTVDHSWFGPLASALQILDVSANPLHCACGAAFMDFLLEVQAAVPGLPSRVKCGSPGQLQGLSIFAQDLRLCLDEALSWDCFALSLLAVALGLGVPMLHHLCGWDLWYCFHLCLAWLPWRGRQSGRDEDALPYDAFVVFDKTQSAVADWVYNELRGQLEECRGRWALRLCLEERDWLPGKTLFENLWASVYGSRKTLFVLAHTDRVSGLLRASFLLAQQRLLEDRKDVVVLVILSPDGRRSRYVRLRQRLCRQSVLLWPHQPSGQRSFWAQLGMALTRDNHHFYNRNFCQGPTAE
PROTOCOL SUMMARY: TLR9 inhibition reporter assay (HEK-Blue SEAP)
CONDITIONS: HEK-Blue cells overexpressing human TLR9, stimulated with ODN2006 5 nM, 22 h incubation
Report the figure in nM without appending any unit label.

Examples with their reported IC50 follow.
Prompt line: Recorded IC50 for `COc1cc(-c2cc3[nH]c4ccc(C5CCN(CC(C)(C)O)CC5)cc4c3cc2C)cn2ncnc12` , please?
Response line: 259

Prompt line: Could you tell me which IC50 is on file for `Cc1c(-c2cc(C)c3c(c2)[nH]c2ccc(C4CCN(CC(C)(C)O)CC4)cc23)cn(C)c(=O)c1C` ?
Response line: 650

Prompt line: What measured IC50 goes with `Cc1cc(-c2ccc3c(c2)[nH]c2ccc(C4CCNCC4)cc23)cc(C)n1` ?
Response line: 53

Prompt line: Record request: IC50 value, item `COc1cc(-c2cc3[nH]c4ccc(C5CN(CCS(C)(=O)=O)C5)cc4c3c(C)c2C)cn2ncnc12`
Response line: 813

Prompt line: If you can, please state the reported IC50 value of `COc1cc(-c2cc3[nH]c4ccc(C5CN(C6CCOCC6)C5)cc4c3c(C)c2C)cn2ncnc12` .
Response line: 1050

More entries:
Prompt line: Name the recorded IC50 for `COc1cc(-c2cc3[nH]c4ccc(C5CN(C6COC6)C5)cc4c3c(C)c2C)cn2ncnc12` .
Response line: 861

====

STUDY SYSTEM: human TLR7 (Homo sapiens)
Sequence (Q9NYK1 27-1049): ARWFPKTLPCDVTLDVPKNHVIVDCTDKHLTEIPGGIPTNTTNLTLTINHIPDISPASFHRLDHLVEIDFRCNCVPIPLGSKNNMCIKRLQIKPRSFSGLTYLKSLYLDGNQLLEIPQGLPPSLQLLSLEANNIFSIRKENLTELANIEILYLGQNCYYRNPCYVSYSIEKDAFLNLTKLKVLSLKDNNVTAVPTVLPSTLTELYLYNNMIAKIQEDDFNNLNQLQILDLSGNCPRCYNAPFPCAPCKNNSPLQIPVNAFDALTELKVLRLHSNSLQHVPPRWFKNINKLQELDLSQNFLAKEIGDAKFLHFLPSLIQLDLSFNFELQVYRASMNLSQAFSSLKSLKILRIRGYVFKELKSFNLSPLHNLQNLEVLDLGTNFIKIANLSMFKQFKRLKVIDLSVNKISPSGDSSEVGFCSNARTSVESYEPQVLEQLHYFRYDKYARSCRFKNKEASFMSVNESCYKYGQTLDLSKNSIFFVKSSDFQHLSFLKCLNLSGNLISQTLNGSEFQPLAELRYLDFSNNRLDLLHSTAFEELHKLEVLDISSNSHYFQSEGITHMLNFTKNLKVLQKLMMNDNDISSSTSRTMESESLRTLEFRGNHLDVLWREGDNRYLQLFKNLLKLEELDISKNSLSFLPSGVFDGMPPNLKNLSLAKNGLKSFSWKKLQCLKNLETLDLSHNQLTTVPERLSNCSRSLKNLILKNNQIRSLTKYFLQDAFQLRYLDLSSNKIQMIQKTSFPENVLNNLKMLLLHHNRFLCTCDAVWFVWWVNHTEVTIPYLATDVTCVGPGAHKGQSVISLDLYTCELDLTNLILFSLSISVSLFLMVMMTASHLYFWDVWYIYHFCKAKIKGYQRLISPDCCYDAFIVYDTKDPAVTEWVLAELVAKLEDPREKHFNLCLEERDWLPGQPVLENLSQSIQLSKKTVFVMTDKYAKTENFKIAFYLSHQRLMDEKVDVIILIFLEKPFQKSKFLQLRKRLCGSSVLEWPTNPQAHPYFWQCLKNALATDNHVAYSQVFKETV
PROTOCOL SUMMARY: TLR7 inhibition reporter assay (HEK-Blue SEAP)
CONDITIONS: HEK-Blue cells overexpressing human TLR7, stimulated with gardiquimod 7.5 µM, 22 h incubation
# pIC50 annotations
A value of pIC50 is the negative decimal logarithm of a concentration given in moles per litre.

Prompt line: Find pIC50 (human TLR7 (Homo sapiens)) for the entry `COc1cc(-c2cc3[nH]c4ccc(C5CCNCC5)cc4c3c(C)c2C)cn2ncnc12`
Response line: 9.10

Prompt line: Value wanted: pIC50 (human TLR7 (Homo sapiens)) of entry `Cc1cc2c(cc1-c1cn(C)c(=O)c(C)c1C)[nH]c1ccc(C3CCN(CC(C)(C)O)CC3)cc12`
Response line: 7.17

Prompt line: Which measured pIC50 belongs to `COc1cc(-c2cc3[nH]c4ccc(C5CN(CC(C)(C)O)C5)cc4c3c(C)c2C)cn2ncnc12` , tested on human TLR7 (Homo sapiens)?
Response line: 8.60

Prompt line: Provide the documented pIC50 with human TLR7 (Homo sapiens) as the system for `Cc1cc(-c2cc(C)c3ncnn3c2)cc2[nH]c3ccc(C4CCN(CC(C)(C)O)CC4)cc3c12`
Response line: 8.74

Prompt line: Short answer please: pIC50, human TLR7 (Homo sapiens), entry `Cc1c(-c2ccc3c(c2)[nH]c2ccc(C4CCNCC4)cc23)cn(C)c(=O)c1C`
Response line: 7.80

Prompt line: Provide the documented pIC50 with human TLR7 (Homo sapiens) as the system for `Cc1cc(-c2cc(C)c3c(c2)[nH]c2ccc(C4CCNCC4)cc23)cc(C)n1`
Response line: 8.62

Prompt line: What pIC50 appears in the records for this molecule with human TLR7 (Homo sapiens)? `COc1cc(-c2cc3[nH]c4ccc(C5CNC5)cc4c3c(C)c2C)cn2ncnc12`
Response line: 8.51

Prompt line: Return pIC50 measured with human TLR7 (Homo sapiens) given this molecule: `COc1cc(-c2cc3[nH]c4ccc(C5CCN(CC(C)(C)O)CC5)cc4c3cc2C)cn2ncnc12`
Response line: 8.39

Next:
Prompt line: Hi! What's the reported pIC50 for `COc1cc(-c2cc3[nH]c4ccc(C5CN(CCS(C)(=O)=O)C5)cc4c3c(C)c2C)cn2ncnc12` on human TLR7 (Homo sapiens)?
Response line: 8.26

Prompt line: Look up pIC50 with human TLR7 (Homo sapiens) for this molecule: `Cc1cc(-c2cc(C)c3ncnn3c2)cc2[nH]c3ccc(C4CCNCC4)cc3c12`
Response line: 9.15

Prompt line: Provide the documented pIC50 with human TLR7 (Homo sapiens) as the system for `Cc1cc(-c2ccc3c(c2)[nH]c2ccc(C4CCNCC4)cc23)cn2ncnc12`
Response line: 6.96

Prompt line: Record lookup: for human TLR7 (Homo sapiens), what pIC50 belongs to `Cn1cc(-c2ccc3c(c2)[nH]c2ccc(C4CCNCC4)cc23)cn1` ?
Response line: 5.86

Prompt line: Any idea what pIC50 came out for COc1cc(-c2cc3[nH]c4ccc(C5CCCN(CC#N)C5)cc4c3c(C)c2C)cn2ncnc12 (centres unmarked) on human TLR7 (Homo sapiens)?
Response line: 8.89

Prompt line: Which measured pIC50 belongs to `Cc1cc2c(cc1-c1cc(C)c3ncnn3c1)[nH]c1ccc(C3CCN(CC(C)(C)O)CC3)cc12` , tested on human TLR7 (Homo sapiens)?
Response line: 8.80

Prompt line: What is its pIC50 for human TLR7 (Homo sapiens)? Entry: `c1cncc(-c2ccc3c(c2)[nH]c2ccc(C4CCNCC4)cc23)c1`
Response line: 5.83

====

Catalogue of IC50 readings, one per entry.
STUDY SYSTEM: UniProt:Q9NYK1
PROTOCOL SUMMARY: TLR7 inhibition reporter assay (HEK-Blue SEAP)
CONDITIONS: HEK-Blue cells overexpressing human TLR7, stimulated with gardiquimod 7.5 µM, 22 h incubation
All answers are understood in nM, so give the number only.

Guide cases for IC50, answers given:
Prompt line: Notebook: pull reported IC50 for UniProt:Q9NYK1, entry COc1cc(-c2cc3[nH]c4ccc(C5CN(CC#N)C5)cc4c3c(C)c2C)cn2ncnc12 [Example 39]
Response line: 11

Prompt line: Provide the documented IC50 with UniProt:Q9NYK1 as the system for COc1cc(-c2cc(C)c3c(c2)[nH]c2ccc(C4CCNCC4)cc23)cn2ncnc12 [Example 12]
Response line: 1.4

Next:
Prompt line: Lab note: need IC50 with UniProt:Q9NYK1 for entry COc1cc(-c2cc3[nH]c4ccc(C5CCCN(CCS(C)(=O)=O)C5)cc4c3c(C)c2C)cn2ncnc12 (stereo not shown) [Example 32] , please look it up.
Response line: 9.4

Prompt line: What measured IC50 is associated with COc1cc(-c2cc3[nH]c4ccc(C5CCCN(C6CCOCC6)C5)cc4c3c(C)c2C)cn2ncnc12 (stereo not shown) [Example 28] on UniProt:Q9NYK1?
Response line: 7.8

====

STUDY SYSTEM: human TLR8 (Homo sapiens)
Sequence (Q9NR97 27-1041): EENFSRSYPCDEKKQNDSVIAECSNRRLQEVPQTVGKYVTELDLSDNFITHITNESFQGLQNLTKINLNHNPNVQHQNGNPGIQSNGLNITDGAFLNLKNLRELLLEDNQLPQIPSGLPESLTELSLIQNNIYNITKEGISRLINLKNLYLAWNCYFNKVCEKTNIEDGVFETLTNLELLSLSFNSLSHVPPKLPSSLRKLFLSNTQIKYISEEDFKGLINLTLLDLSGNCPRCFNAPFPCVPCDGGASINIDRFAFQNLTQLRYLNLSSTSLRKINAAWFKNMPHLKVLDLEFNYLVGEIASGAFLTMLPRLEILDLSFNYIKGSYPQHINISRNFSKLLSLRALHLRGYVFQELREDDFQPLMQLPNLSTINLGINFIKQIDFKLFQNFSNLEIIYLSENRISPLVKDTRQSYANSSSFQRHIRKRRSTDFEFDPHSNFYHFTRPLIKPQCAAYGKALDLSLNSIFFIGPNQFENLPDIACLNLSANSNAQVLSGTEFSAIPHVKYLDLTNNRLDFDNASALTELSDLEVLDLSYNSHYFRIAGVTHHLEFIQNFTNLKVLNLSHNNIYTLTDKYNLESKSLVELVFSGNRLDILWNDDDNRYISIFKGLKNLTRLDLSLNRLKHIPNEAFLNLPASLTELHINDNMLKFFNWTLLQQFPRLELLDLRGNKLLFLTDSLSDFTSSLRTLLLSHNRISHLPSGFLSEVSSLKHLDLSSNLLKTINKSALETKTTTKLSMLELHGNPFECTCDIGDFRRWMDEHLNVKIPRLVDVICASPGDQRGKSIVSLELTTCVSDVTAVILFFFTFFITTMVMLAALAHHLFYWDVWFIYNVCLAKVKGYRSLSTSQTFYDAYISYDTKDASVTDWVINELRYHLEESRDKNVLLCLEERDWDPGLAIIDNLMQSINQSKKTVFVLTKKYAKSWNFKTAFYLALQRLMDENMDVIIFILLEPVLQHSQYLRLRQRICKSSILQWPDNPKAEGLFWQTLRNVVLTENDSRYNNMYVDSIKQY
PROTOCOL SUMMARY: TLR8 inhibition reporter assay (HEK-Blue SEAP)
CONDITIONS: HEK-Blue cells overexpressing human TLR8, stimulated with R848 15.9 µM, 22 h incubation
MEASUREMENT TYPE: pIC50
Scale explanation: pIC50 corresponds to minus log10 of a concentration expressed in moles per litre.

These solved cases illustrate the format of a correct answer.
Prompt line: What pIC50 value was documented for this compound, COc1cc(-c2cc3[nH]c4ccc(C5CN(CC#N)C5)cc4c3c(C)c2C)cn2ncnc12 [Example 39] ?
Response line: 8.40

Prompt line: Recorded pIC50 of COc1cc(-c2cc3[nH]c4ccc(C5CCCN(CCS(C)(=O)=O)C5)cc4c3c(C)c2C)cn2ncnc12 (stereo not shown) [Example 32] , please.
Response line: 8.70

Prompt line: Given the compound Cc1cc(-c2cc(C)c3c(c2)[nH]c2ccc(C4CCN(CC(C)(C)O)CC4)cc23)cc(C)n1 [Example 21] , what is its reported pIC50?
Response line: 7.92

Prompt line: Record request: pIC50 value, item Cc1cc(-c2cc(C)c3ncnn3c2)cc2[nH]c3ccc(C4CCN(CC(C)(C)O)CC4)cc3c12 [Example 19]
Response line: 8.40

Prompt line: Tell me the measured pIC50 of COc1cc(-c2cc3[nH]c4ccc(C5CCCN(CC#N)C5)cc4c3c(C)c2C)cn2ncnc12 (stereo not shown) [Example 34] , please.
Response line: 8.60

Others:
Prompt line: Value lookup for pIC50; key = COc1cc(-c2cc3[nH]c4ccc(C5CN(CCS(C)(=O)=O)C5)cc4c3c(C)c2C)cn2ncnc12 [Example 30]
Response line: 9.00

Prompt line: Which measured pIC50 value corresponds to COc1cc(-c2cc3[nH]c4ccc(C5CCN(CC(C)(C)O)CC5)cc4c3c(C)c2C)cn2ncnc12 [Example 25] ?
Response line: 9.40

Prompt line: Report pIC50 for COc1cc(-c2cc(C)c3c(c2)[nH]c2ccc(C4CCN(CC(C)(C)O)CC4)cc23)cn2ncnc12 [Example 20] please.
Response line: 8.68

Prompt line: Please look up its pIC50: Cc1cc(-c2ccc3c(c2)[nH]c2ccc(C4CCNCC4)cc23)cn2ncnc12 [Example 3]
Response line: 6.45

Prompt line: Query: pIC50; subject: Cc1c(-c2cc(C)c3c(c2)[nH]c2ccc(C4CCNCC4)cc23)cn(C)c(=O)c1C [Example 10]
Response line: 8.62

Prompt line: What value of pIC50 has been recorded for this entry: Cc1cc2c(cc1-c1cc(C)c3ncnn3c1)[nH]c1ccc(C3CCN(CC(C)(C)O)CC3)cc12 [Example 22]
Response line: 9.15
